B1: CD207 (parent)
chain: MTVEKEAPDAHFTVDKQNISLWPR

variants of: B1; experiment: protein stability index of a GFP-peptide fusion (GPS, HEK-293T) (PSI 1-6); higher = more stable; conditions: c terminus: a fixed tail appended;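 further: lentivirally expressed fusions sorted by FACS into six bins by GFP to DsRed ratio, PSI derived from sequencing read proportions per bin multiplied by bin number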
Note to self: values exactly at 3 are Satisfied. So protein stability index at or above 3 is Satisfied, below is Not satisfied.

# mutation-string, qualitative-label
rows = [
    ("H11N", "Satisfied"),
    ("I19F", "Satisfied"),
    ("R24A", "Satisfied"),
    ("W22Y", "Satisfied"),
]

Does the variant D15I have recorded protein stability index that is 3 or more?
Not satisfied

protein stability index >= 3 for P8Y ?
Not satisfied

In plain terms: is recorded protein stability index at least 3 for V14M ?
Satisfied

Is protein stability index at least 3? Consider Q17K
Satisfied

Decide: is the reported value of protein stability index for N18I equal to or greater than 3?
Not satisfied

Is reported protein stability index greater than or equal to 3 here: K5G
Satisfied

Does the reported protein stability index for S20D fall at or above the 3 mark?
Satisfied

Please tell me: is the variant P23E at or over 3 in terms of protein stability index?
Satisfied

Reference source: the supplement of paper PMC10567573
